- Tested on: LOX IMVI melanoma
- protocol.details: NCI tumour cell line growth inhibition, 48 h
readout.type: TGI

// recorded TGI for C/C(=N\NC(=S)Nc1ccc(Cl)cc1)c1nc2ncccc2[nH]1 : 13.1 µM

// recorded TGI for O=C1COCCN1c1ccc(NCc2cn(C(=O)c3ccc(Cl)cc3)c3ccccc23)cc1 : 19.8 µM

// recorded TGI for COC1C(O)C(C)OC(O[C@@H]2C[C@H]3CC[C@@H]4[C@H](CC[C@]5(C)[C@@H](C6=CC(=O)OC6)CC[C@]45O)[C@@]3(C)[C@H](O)C2)C1O (some centres not stated) : 0.233 µM
